- subjectOfTest: SARS-CoV-2 nsp5 (nsp4-5-6 WT) (Severe acute respiratory syndrome coronavirus 2)
- experimentNotes: cell-based
- cond: HEK-293T, read-out: Primary screen nsp5-WT RLU (%)
inhibition at 10 µM below 30% gives Not satisfied; inhibition at 10 µM at or above it gives Satisfied.

>>> print(df.to_string())
                                   molecule     labelvalue
0  Cc1cnc(Nc2ccc(OCCN3CCCC3)cc2)nc1Nc1cccc(S(=O)(=O)NC(C)(C)C)c1 [compound 6, Fedratinib (SAR302503)]      Satisfied
1  C1=C/COCc2cc(ccc2OCCN2CCCC2)Nc2nccc(n2)-c2cccc(c2)COC/1 [Compound #9, Pacritinib (SB1518)]  Not satisfied
2  COCCOc1ccc2c(c1)ncn2-c1ccc2cccc(N3CCC(N)CC3)c2n1  Not satisfied
3  O=C(Nc1c[nH]nc1-c1nc2ccc(CN3CCOCC3)cc2[nH]1)NC1CC1  Not satisfied
4  CC(C)(C)c1cnc(CSc2cnc(NC(=O)C3CCNCC3)s2)o1  Not satisfied
5  C=CC(=O)Nc1cccc(Nc2nc(Nc3ccc(N4CCN(C(C)=O)CC4)cc3OC)ncc2C(F)(F)F)c1  Not satisfied
